System: Mycobacterium tuberculosis
Assay comment: Antitubercular activity against Mycobacterium tuberculosis H37Rv assessed as growth inhibition by secondary screen assay
Type: functional
Reported endpoint: MIC

Reference set (2 entries):
- Query smiles: "Cc1ccc(-n2cc(/C=N/n3c(-c4cccc([N+](=O)[O-])c4)nc4ccccc4c3=O)c(-c3ccncc3)n2)cc1"
  Reported endpoint: "MIC"
  Result value: "< 3.12 mg/L"
- Query smiles: "NNC(=O)c1ccncc1"
  Reported endpoint: "MIC"
  Result value: "0.125 mg/L"

Dear colleague, could you send me MIC for each of the items below? Thanks.
1. Cc1ccc(-n2cc(/C=N/n3c(-c4ccccc4C)nc4ccccc4c3=O)c(-c3ccncc3)n2)cc1
2. COc1ccccc1-c1nc2ccccc2c(=O)n1/N=C/c1cn(-c2ccc(C)cc2)nc1-c1ccncc1

1. < 3.12 mg/L
2. < 3.12 mg/L

Dear colleague, could you send me MIC for each of the items below? Thanks.
1. Cc1ccc(-n2cc(/C=N/n3c(-c4ccccc4Cl)nc4ccccc4c3=O)c(-c3ccncc3)n2)cc1
2. Cc1ccc(-n2cc(/C=N/n3c(-c4ccc(Cl)cc4)nc4ccccc4c3=O)c(-c3ccncc3)n2)cc1

1. < 3.12 mg/L
2. < 3.12 mg/L
